// reported growth inhibition per item
test: NCI Yeast Anticancer Drug Screen. Data for the mlh1 rad18 strain (AID 175); settings: S. cerevisiae mlh1 rad18 strain growth inhibition; at 50.0 µM; active compounds read high
About 79,000 compounds went through this panel and 15% of them were active in at least one assay; those are over-represented in the sample as a whole.
Number only, in %; omit the unit.

Check out these entries, answers already filled in.
{"compound": "COc1cc2c(cc1OC)C(=O)Cc1ccc3c(c1CN(C)CC2)OCO3", "unit.abbrev": "%", "growth inhibition": -17.9}
{"compound": "O=[N+]([O-])c1cccc(/C=C/c2cc(N(CCO)CCO)c3ccccc3n2)c1", "unit.abbrev": "%", "growth inhibition": 22.2}

IN: Fill in the blank: the reported growth inhibition of COC(=O)C(C(=O)C(=O)Nc1nc2ccc([N+](=O)[O-])cc2s1)c1nc2ccc(Cl)cc2[nH]c1=O (stereo unspecified) is ____.
OUT: -3.1

IN: Fill in the blank: the reported growth inhibition of O=C1OC(=O)C2=C1CCC2 is ____.
OUT: -12.4

IN: Fill in the blank: the reported growth inhibition of COC(=O)c1nn2c(=O)n(C(C)=O)c3ccccc3c2c1C(=O)OC is ____.
OUT: 24.6

IN: Fill in the blank: the reported growth inhibition of CCCC1(C(=O)O)NC(=O)NC1=O (stereo unspecified) is ____.
OUT: -8.1

----------
test: NCI Yeast Anticancer Drug Screen. Data for the cln2 rad14 strain (AID 165);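 note: 0% = growth equal to vehicle treated cultures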; settings: S. cerevisiae cln2 rad14 strain, at 50.0 µM, active compounds read high
About 79,000 compounds went through this panel and 15% of them were active in at least one assay; those are over-represented in the sample as a whole. Calls of active or inactive are those of the source. Cut-off read from the data, not from the text of the source: active = growth inhibition above about 70%; inactive = the rest.
// reported growth inhibition per item

Check out these entries, answers already filled in.
{"compound": "N#CC1=C(N)N(c2ccccc2)C(c2ccccc2)C1(C#N)C#N (configuration not stated)", "growth inhibition": "-4.9% (inactive)"}
{"compound": "Cc1ccc2ccccc2[n+]1CC(=O)c1ccc2c(c1)OCO2", "growth inhibition": "3.85% (inactive)"}
{"compound": "COc1ccc2c(CCNC(C)=O)c(C(C)=O)[nH]c2c1", "growth inhibition": "15.5% (inactive)"}
{"compound": "O=[N+]([O-])c1cc(Cl)cc2c1nc(NCCCO)c1ccccc12", "growth inhibition": "-7.95% (inactive)"}

IN: Fill in the blank: the reported growth inhibition of CCC(C)C(O)CC (configuration not stated) is ____.
OUT: 19.4% (inactive)

IN: Fill in the blank: the reported growth inhibition of NNC(=S)N/N=C\c1ccnc2ccccc12 is ____.
OUT: 28.7% (inactive)

IN: Fill in the blank: the reported growth inhibition of CC1(C)CC2CC(CC(C)(C)C2=O)C1=O is ____.
OUT: 5.05% (inactive)

IN: Fill in the blank: the reported growth inhibition of O=C(O)c1cc([N+](=O)[O-])ccc1Oc1cccc([N+](=O)[O-])c1 is ____.
OUT: 27% (inactive)

IN: Fill in the blank: the reported growth inhibition of C[N+](C)(C)C=Nc1cccc2c1CCCC2 is ____.
OUT: -7.05% (inactive)

IN: Fill in the blank: the reported growth inhibition of CCOC(=O)C(=N\Nc1ccccc1)/C(C)=N\NC(N)=S is ____.
OUT: 8.95% (inactive)

IN: Fill in the blank: the reported growth inhibition of O=C1CCCC/C(=C/c2ccccc2)N1 is ____.
OUT: 12.8% (inactive)

IN: Fill in the blank: the reported growth inhibition of CCCCC(=O)N/N=C\c1cc(Cl)ccc1[N+](=O)[O-] is ____.
OUT: 33.2% (inactive)

----------
// reported growth inhibition per item
test: NCI Yeast Anticancer Drug Screen. Data for the mec2-1 strain (AID 157); conditions: S. cerevisiae mec2-1 strain, at 50.0 µM, active compounds read high
This is part of a sample that, as a whole, favours compounds with a hit. Of some 79,000 tested, about 15% had one in any assay.
Number only, in %; omit the unit.

{"molecule": "O=C1c2ccccc2-c2c1c1ccccc1c(=O)n2Cc1ccco1", "unit.abbrev": "%", "growth inhibition": -29.2}
{"molecule": "COc1ccc2c(CCNC(C)=O)c(C(C)=O)[nH]c2c1", "unit.abbrev": "%", "growth inhibition": -3.25}
{"molecule": "CN(C)c1ncnc2c1ncn2CC(O)CN (centres undefined)", "unit.abbrev": "%", "growth inhibition": -8.65}
{"molecule": "C/C(=N\\N=C\\N(C)S(=O)(=O)c1ccc(C)cc1)c1ccccc1", "unit.abbrev": "%", "growth inhibition": -2.8}
{"molecule": "NC1C2C=CC(C2)C1C(=O)O (centres undefined)", "unit.abbrev": "%", "growth inhibition": -0.25}
{"molecule": "OCC1(CO)CCC=CO1", "unit.abbrev": "%", "growth inhibition": -7.8}
{"molecule": "OCC1CCNCC1", "unit.abbrev": "%", "growth inhibition": 12.1}
{"molecule": "CCc1ccc2c(c1)/C(=N\\NC(N)=O)CCC2", "unit.abbrev": "%", "growth inhibition": 13.5}
{"molecule": "COc1ccc(C2NC(C(=O)O)Cc3c2[nH]c2ccccc32)cc1OC (centres undefined)", "unit.abbrev": "%", "growth inhibition": -5.6}
{"molecule": "Cc1cc(CC#N)c(CC#N)cc1C", "unit.abbrev": "%", "growth inhibition": -10.1}

IN: Fill in the blank: the reported growth inhibition of COc1cc([C@H]2Oc3cc([C@H]4Oc5cc(O)cc(O)c5C(=O)[C@@H]4O)ccc3O[C@@H]2CO)ccc1O is ____.
OUT: 0.55

IN: Fill in the blank: the reported growth inhibition of O=C([O-])C[n+]1ccccc1 is ____.
OUT: -2.75

IN: Fill in the blank: the reported growth inhibition of O=Cc1ccc(OCCCOc2ccc([N+](=O)[O-])cc2)cc1 is ____.
OUT: 1.6

IN: Fill in the blank: the reported growth inhibition of O=C(Oc1ccc2c(=O)cc(-c3ccccc3)oc2c1OC(=O)c1ccccc1)c1ccccc1 is ____.
OUT: 7.6

IN: Fill in the blank: the reported growth inhibition of CCCC1CCCC1C (centres undefined) is ____.
OUT: 4.25

IN: Fill in the blank: the reported growth inhibition of CCc1cccc(C)c1NC(=O)C(=O)CC(=O)c1ccc(Cl)cc1Cl is ____.
OUT: 14.8

IN: Fill in the blank: the reported growth inhibition of COC1(OC)C(c2ccco2)C(C#N)(C#N)C1(OC)OC (centres undefined) is ____.
OUT: -1.95

IN: Fill in the blank: the reported growth inhibition of CC(=O)NC(c1ccc(Cl)cc1)(c1ccc(Cl)cc1)C(Cl)(Cl)Cl is ____.
OUT: -35

IN: Fill in the blank: the reported growth inhibition of C=CCOc1cc2c(cc1C(C)c1ccc(OCC)cc1)OCO2 (centres undefined) is ____.
OUT: 14.8

IN: Fill in the blank: the reported growth inhibition of O=C(NCc1ccccc1)c1ccc([N+](=O)[O-])cc1 is ____.
OUT: 13.8

IN: Fill in the blank: the reported growth inhibition of O=c1cc(O)n(C2=NCCN2)[nH]1 is ____.
OUT: -23.6

IN: Fill in the blank: the reported growth inhibition of CN(C)c1ccccc1CCO is ____.
OUT: -33.5

IN: Fill in the blank: the reported growth inhibition of C1=Nc2ccccc2/C1=C/c1ccc2c(c1)OCO2 is ____.
OUT: 11.7

IN: Fill in the blank: the reported growth inhibition of CC(NC(=O)C(Cc1ccccc1)NC(=O)OCc1ccccc1)C(=O)NC1C(CO)OC(n2cnc3c(N)ncnc32)C1O (centres undefined) is ____.
OUT: -3.9

IN: Fill in the blank: the reported growth inhibition of CN(Cc1ccc(Cl)cc1)C(=O)Nc1ccccc1Cl is ____.
OUT: 14.7

IN: Fill in the blank: the reported growth inhibition of CC(C)(C)C(c1ccccc1)[N+](C)(C)C (centres undefined) is ____.
OUT: -2

----------
assay: NCI Yeast Anticancer Drug Screen. Data for the bub3 strain (AID 167); details: S. cerevisiae bub3 mutant strain, at 50.0 µM, active compounds read high
This is part of a sample that, as a whole, favours compounds with a hit. Of some 79,000 tested, about 15% had one in any assay.
// reported growth inhibition per item
Number only, in %; omit the unit.

Check out these entries, answers already filled in.
{"molecule": "CCOC(=O)C(NC(=O)c1ccccc1)(c1ccc(S(=O)(=O)Nc2onc(C)c2C)cc1)C(F)(F)F (configuration not stated)", "growth inhibition (%)": -10.6}
{"molecule": "COc1ccc(/C=N/NC(=O)c2ccc(N)cc2)cc1", "growth inhibition (%)": 22.4}
{"molecule": "CCOC(=O)C1CSCN1C(C)=O (configuration not stated)", "growth inhibition (%)": -11.8}
{"molecule": "CCC(C)N1C(=O)c2ccccc2C1=O (configuration not stated)", "growth inhibition (%)": 11.3}
{"molecule": "O=C1C(=Cc2ccc([N+](=O)[O-])o2)C(=O)N(CCc2ccccc2)S(=O)(=O)N1CCc1ccccc1", "growth inhibition (%)": -6.6}
{"molecule": "Clc1ccc2noc(-c3ccccc3)c2c1", "growth inhibition (%)": 0.7}
{"molecule": "C=CN1C(=O)NC(C)(CC(C)C)C1=O (configuration not stated)", "growth inhibition (%)": -7.25}
{"molecule": "CNc1ccccc1C(=O)N/N=C\\c1ccc(Cl)cc1Cl", "growth inhibition (%)": -10.1}

IN: Fill in the blank: the reported growth inhibition of Cn1cnc([N+](=O)[O-])c1Sc1ccccc1N is ____.
OUT: -15.7

IN: Fill in the blank: the reported growth inhibition of Cc1c(-c2ccc3c(c2)OCO3)sc(N)c1C#N is ____.
OUT: 20.6

IN: Fill in the blank: the reported growth inhibition of CCCC(=O)Nc1cc(/C=C/C(=O)N2C[C@H]3C[C@@]34C2=CC(=O)c2[nH]cc(C)c24)n(C)c1 is ____.
OUT: 58

IN: Fill in the blank: the reported growth inhibition of CCCCNC(=O)/C(=C\c1ccccc1)NC(C)=O is ____.
OUT: 10.9
